The origin of these recorded values is patent US9464084B2.

SUBJECT_OF_TEST: P2X7 (Homo sapiens (Human), UniProt Q99572)
Sequence (Q99572 whole entry): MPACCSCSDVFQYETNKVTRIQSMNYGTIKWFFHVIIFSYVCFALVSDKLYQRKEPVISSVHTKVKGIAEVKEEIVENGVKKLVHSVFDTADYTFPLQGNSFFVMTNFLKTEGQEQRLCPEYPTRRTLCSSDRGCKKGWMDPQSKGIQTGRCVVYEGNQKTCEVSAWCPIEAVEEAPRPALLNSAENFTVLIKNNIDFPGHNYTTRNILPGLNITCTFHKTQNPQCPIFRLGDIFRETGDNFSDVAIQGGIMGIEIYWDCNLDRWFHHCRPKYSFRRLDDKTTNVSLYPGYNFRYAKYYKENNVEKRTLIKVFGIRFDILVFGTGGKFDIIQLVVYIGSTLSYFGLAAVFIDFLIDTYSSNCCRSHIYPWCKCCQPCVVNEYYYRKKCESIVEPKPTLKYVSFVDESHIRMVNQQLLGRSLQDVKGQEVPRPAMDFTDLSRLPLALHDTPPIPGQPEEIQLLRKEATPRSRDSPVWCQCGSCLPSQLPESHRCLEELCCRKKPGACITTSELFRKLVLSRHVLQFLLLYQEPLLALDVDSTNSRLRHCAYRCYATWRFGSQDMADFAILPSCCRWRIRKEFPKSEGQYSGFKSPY
ASSAY_OVERVIEW: P2X7 antagonism in human PBMCs (LPS + Bz-ATP induced IL-1β release, ELISA)
Assay type: cell-based
MEASUREMENT_CONDITIONS: compound 10 μM, LPS 30 ng/ml, Bz-ATP 0.5 mM
TEST_READOUT: PBMC 10 μM (% control)

Record excerpt, results attached:
{"COMPOUND": "CC1c2ncn(-c3ncc(F)cn3)c2CCN1C(=O)c1cccc(C(F)(F)F)c1Cl (stereo not shown) [Example 22]", "TEST_READOUT": "PBMC 10 μM (% control)", "NUMERIC_READOUT": "−15.9"}
{"COMPOUND": "CC1c2ncn(-c3ccc(F)cn3)c2CCN1C(=O)c1ccccc1F (stereo not shown) [Example 264]", "TEST_READOUT": "PBMC 10 μM (% control)", "NUMERIC_READOUT": 89.5}

1: Cc1cc(C)nc(-n2nnc3c2CCN(C(=O)c2cccc(Cl)c2Cl)C3C)n1 (stereo not shown) [Example 179]
2: CC1C=CN=C(n2nnc3c2CCN(C(=O)c2cccc(C(F)(F)F)c2Cl)[C@@H]3C)N1 (single isomer, unassigned) [Example 234]
When their PBMC 10 μM (% control) values are compared, which is larger, 1 or 2 ? Reply briefly: the label of your chosen item.
1
(1: −4.3 % control, 2: −40.9 % control)

====

SUBJECT_OF_TEST: rat P2X7 (Rattus norvegicus (Rat), UniProt Q64663)
Sequence (Q64663 whole entry): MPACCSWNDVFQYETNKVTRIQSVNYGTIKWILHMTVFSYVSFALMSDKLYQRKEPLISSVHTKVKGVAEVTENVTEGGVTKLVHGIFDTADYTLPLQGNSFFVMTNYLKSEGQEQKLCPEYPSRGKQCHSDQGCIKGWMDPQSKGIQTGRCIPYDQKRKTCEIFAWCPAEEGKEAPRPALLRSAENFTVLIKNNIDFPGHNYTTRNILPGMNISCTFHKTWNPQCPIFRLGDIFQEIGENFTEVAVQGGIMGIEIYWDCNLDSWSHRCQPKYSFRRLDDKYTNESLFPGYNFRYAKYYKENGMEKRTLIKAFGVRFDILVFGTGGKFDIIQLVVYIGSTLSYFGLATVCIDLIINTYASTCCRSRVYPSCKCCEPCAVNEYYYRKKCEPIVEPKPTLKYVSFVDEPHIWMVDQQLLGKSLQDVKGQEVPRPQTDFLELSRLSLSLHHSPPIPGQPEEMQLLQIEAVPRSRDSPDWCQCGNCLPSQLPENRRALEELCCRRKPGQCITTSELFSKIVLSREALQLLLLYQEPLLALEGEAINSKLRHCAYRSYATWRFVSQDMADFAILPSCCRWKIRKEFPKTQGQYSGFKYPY
ASSAY_OVERVIEW: Ca2+ flux (FLIPR) in 1321N1 cells expressing recombinant rat P2X7 channel;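 note: Calcium-4 dye fluorescence change read 180 s after agonist addition, following 30 min cell preincubation with test compound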
MEASUREMENT_CONDITIONS: 250 μM BzATP
pIC50: −log10 of the molar value.
TEST_READOUT: pIC50

{"MOLECULE": "Cc1c(C(=O)N2CCc3c(nnn3-c3cnccn3)C2)cccc1C(F)(F)F", "pIC50": 6.06}
{"MOLECULE": "O=C(c1cccc(C(F)(F)F)c1Cl)N1CCc2c(ncn2-c2ccccc2)C1", "pIC50": 5.71}
{"MOLECULE": "Cc1ccc(-n2nnc3c2CCN(C(=O)c2cccc(C(F)(F)F)c2Cl)C3C)nc1 (centres unmarked)", "pIC50": 6.79}
{"MOLECULE": "O=C(c1cccc(C(F)(F)F)c1Cl)N1C=Cc2c(nnn2-c2cnccn2)C1c1ccccc1 (centres unmarked)", "pIC50": 7.49}
{"MOLECULE": "O=C(c1cccc(C(F)(F)F)c1Cl)N1CCc2c(nnn2-c2cc(F)ccn2)C1", "pIC50": 7.29}
{"MOLECULE": "O=C(c1cccc(C(F)(F)F)c1Cl)N1C=Cc2c(nnn2-c2ccccn2)C1", "pIC50": 6.01}

I: Cc1ccnc(-n2nnc3c2CCN(C(=O)c2cccc(C(F)(F)F)c2F)C3C)n1 (centres unmarked)
II: Cc1ccc(-n2nnc3c2CCN(C(=O)c2cccc(C(F)(F)F)c2Cl)[C@@H]3C)nc1 (single isomer, unassigned)
When their pIC50 values are compared, which is larger, I or II ? Reply briefly: the label of your chosen item.
I
(I: 7.69, II: 6.68)

====

SUBJECT_OF_TEST: P2X7 (Homo sapiens (Human))
ASSAY_OVERVIEW: P2X7 antagonism in human PBMCs (LPS + Bz-ATP induced IL-1β release, ELISA)
Format: cell-based
MEASUREMENT_CONDITIONS: compound 10 μM, LPS 30 ng/ml, Bz-ATP 0.5 mM
TEST_READOUT: PBMC 10 μM (% control)

{"COMPOUND": "CC1CN(C(=O)c2cccc(C(F)(F)F)c2Cl)C(C)c2nnn(-c3ccc(F)cc3)c21 (stereo not shown)", "PBMC 10 μM (% control)": "−4.1"}

I: Cc1c(C(=O)N2CCc3c(ncn3-c3ccc(F)cn3)C2)cccc1C(F)(F)F
II: CC1CN(C(=O)c2cccc(C(F)(F)F)c2Cl)Cc2nnn(-c3ccc(F)cc3)c21 (stereo not shown)
III: CC1Cc2c(nnn2-c2ncc(F)cn2)CN1C(=O)c1cccc(C(F)(F)F)c1Cl (stereo not shown)
List by increasing PBMC 10 μM (% control). Arrange the labels as the request states and list them.
II, III, I
(II: −3.1 % control, III: 3.2 % control, I: 9.5 % control)

====

SUBJECT_OF_TEST: P2X7 (Homo sapiens (Human), UniProt Q99572)
ASSAY_OVERVIEW: P2X7 antagonism in human PBMCs (LPS + Bz-ATP induced IL-1β release, ELISA);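 note: PBMCs from donor human blood, with a further 1.5 h incubation of the cells in the assay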
Type: cell-based
MEASUREMENT_CONDITIONS: compound 10 μM, LPS 30 ng/ml, Bz-ATP 0.5 mM
TEST_READOUT: PBMC 10 μM (% control)

{"COMPOUND": "C[C@H]1Cc2c(nnn2-c2ccccn2)CN1C(=O)c1cccc(C(F)(F)F)c1Cl (single isomer, unassigned) [Example 118]", "TEST_READOUT": "PBMC 10 μM (% control)", "NUMERIC_READOUT": 12.6}
{"COMPOUND": "CC1c2c(nnn2-c2ccccc2)CCN1C(=O)c1cccc(C(F)(F)F)c1Cl (stereo not shown) [Example 289]", "TEST_READOUT": "PBMC 10 μM (% control)", "NUMERIC_READOUT": "−27.6"}
{"COMPOUND": "COCCn1ccc(-n2nnc3c2CCN(C(=O)c2cccc(C(F)(F)F)c2Cl)[C@H]3C)n1 (single isomer, unassigned) [Example 249]", "TEST_READOUT": "PBMC 10 μM (% control)", "NUMERIC_READOUT": 5.1}
{"COMPOUND": "C[C@@H]1Cc2c(nnn2-c2ccccn2)CN1C(=O)c1cccc(C(F)(F)F)c1Cl (single isomer, unassigned) [Example 119]", "TEST_READOUT": "PBMC 10 μM (% control)", "NUMERIC_READOUT": 20.0}
{"COMPOUND": "Cc1c(C(=O)N2CCc3c(nnn3-c3cnccn3)C2C)cccc1C(F)(F)F (stereo not shown) [Example 278]", "TEST_READOUT": "PBMC 10 μM (% control)", "NUMERIC_READOUT": "−19.5"}

1: C[C@@H]1Cc2c(nnn2-c2ccn[nH]2)[C@H](C)N1C(=O)c1cccc(C(F)(F)F)c1Cl [Example 309]
2: COc1ccnc(-n2nnc3c2CCN(C(=O)c2cccc(C(F)(F)F)c2Cl)C3)c1 [Example 136]
When their PBMC 10 μM (% control) values are compared, which is larger, 1 or 2 ? Reply briefly: the label of your chosen item.
2

====

SUBJECT_OF_TEST: P2X7 (Homo sapiens (Human))
ASSAY_OVERVIEW: P2X7 antagonism in human PBMCs (LPS + Bz-ATP induced IL-1β release, ELISA)
Assay type: cell-based
MEASUREMENT_CONDITIONS: compound 10 μM, LPS 30 ng/ml, Bz-ATP 0.5 mM
TEST_READOUT: PBMC 10 μM (% control)

Record excerpt, results attached:
{"MOLECULE": "C[C@@H]1c2nnn(-c3ccc(F)cc3)c2C[C@H](C)N1C(=O)c1cccc(C(F)(F)F)c1Cl", "PBMC 10 μM (% control)": "−4.1"}
{"MOLECULE": "Cc1c(C(=O)N2Cc3nnn(-c4ncc(F)cn4)c3C[C@H]2C)ccnc1C(F)(F)F (single isomer, unassigned)", "PBMC 10 μM (% control)": "−0.6"}
{"MOLECULE": "C[C@@H]1c2nnn(-c3cc(F)ccn3)c2CCN1C(=O)c1cccc(C(F)(F)F)c1Cl (single isomer, unassigned)", "PBMC 10 μM (% control)": "−9.6"}
{"MOLECULE": "CC1c2nnn(-c3ccc(F)cn3)c2CCN1C(=O)c1cccc(C(F)(F)F)c1Cl (stereo not shown)", "PBMC 10 μM (% control)": 11.1}
{"MOLECULE": "O=C(c1cccc(C(F)(F)F)c1F)N1CCc2c(nnn2-c2ncccn2)C1", "PBMC 10 μM (% control)": 2.7}

P: CC1Cc2c(nnn2-c2ncccc2F)CN1C(=O)c1cccc(C(F)(F)F)c1Cl (stereo not shown)
Q: C[C@@H]1Cc2c(nnn2-c2ncc(F)cn2)CN1C(=O)c1cccc(C(F)(F)F)c1Cl (single isomer, unassigned)
When their PBMC 10 μM (% control) values are compared, which is larger, P or Q ? Reply briefly: the label of your chosen item.
Q
(Q: 20.4 % control, P: 0.2 % control)

====

SUBJECT_OF_TEST: UniProt Q99572
ASSAY_OVERVIEW: P2X7 antagonism in human PBMCs (LPS + Bz-ATP induced IL-1β release, ELISA)
Type: cell-based
MEASUREMENT_CONDITIONS: compound 10 μM, LPS 30 ng/ml, Bz-ATP 0.5 mM
TEST_READOUT: PBMC 10 μM (% control)

Record excerpt, results attached:
{"COMPOUND": "O=C(c1cccc(C(F)(F)F)c1Cl)N1CCc2c(nnn2-c2ccn[nH]2)C1 [Example 68]", "UNIT_TAG": "% control", "PBMC 10 μM (% control)": 12.9}
{"COMPOUND": "C[C@H]1Cc2c(nnn2-c2cc(F)ccn2)CN1C(=O)c1cccc(Cl)c1Cl (single isomer, unassigned) [Example 196]", "UNIT_TAG": "% control", "PBMC 10 μM (% control)": "−3.1"}
{"COMPOUND": "C[C@H]1c2ncn(-c3ncc(F)cn3)c2CCN1C(=O)c1cccc(C(F)(F)F)c1Cl (single isomer, unassigned) [Example 194]", "UNIT_TAG": "% control", "PBMC 10 μM (% control)": "−12.8"}
{"COMPOUND": "C[C@H]1Cc2c(nnn2-c2cnccn2)CN1C(=O)c1cccc(C(F)(F)F)c1Cl (single isomer, unassigned) [Example 212]", "UNIT_TAG": "% control", "PBMC 10 μM (% control)": 17.4}

P: C[C@H]1c2nnn(-c3cccc(F)n3)c2CCN1C(=O)c1cccc(C(F)(F)F)c1Cl (single isomer, unassigned) [Example 147]
Q: Cc1cc(C)nc(-n2nnc3c2CCN(C(=O)c2cccc(C(F)(F)F)c2Cl)[C@H]3C)n1 (single isomer, unassigned) [Example 182]
// compare: P vs Q , metric PBMC 10 μM (% control), want the smaller Reply briefly: the label of your chosen item.
P
